target-system: Disintegrin and metalloproteinase domain-containing protein 17 (Mus musculus)
Sequence (Q9Z0F8 whole entry, the tested form may be a part): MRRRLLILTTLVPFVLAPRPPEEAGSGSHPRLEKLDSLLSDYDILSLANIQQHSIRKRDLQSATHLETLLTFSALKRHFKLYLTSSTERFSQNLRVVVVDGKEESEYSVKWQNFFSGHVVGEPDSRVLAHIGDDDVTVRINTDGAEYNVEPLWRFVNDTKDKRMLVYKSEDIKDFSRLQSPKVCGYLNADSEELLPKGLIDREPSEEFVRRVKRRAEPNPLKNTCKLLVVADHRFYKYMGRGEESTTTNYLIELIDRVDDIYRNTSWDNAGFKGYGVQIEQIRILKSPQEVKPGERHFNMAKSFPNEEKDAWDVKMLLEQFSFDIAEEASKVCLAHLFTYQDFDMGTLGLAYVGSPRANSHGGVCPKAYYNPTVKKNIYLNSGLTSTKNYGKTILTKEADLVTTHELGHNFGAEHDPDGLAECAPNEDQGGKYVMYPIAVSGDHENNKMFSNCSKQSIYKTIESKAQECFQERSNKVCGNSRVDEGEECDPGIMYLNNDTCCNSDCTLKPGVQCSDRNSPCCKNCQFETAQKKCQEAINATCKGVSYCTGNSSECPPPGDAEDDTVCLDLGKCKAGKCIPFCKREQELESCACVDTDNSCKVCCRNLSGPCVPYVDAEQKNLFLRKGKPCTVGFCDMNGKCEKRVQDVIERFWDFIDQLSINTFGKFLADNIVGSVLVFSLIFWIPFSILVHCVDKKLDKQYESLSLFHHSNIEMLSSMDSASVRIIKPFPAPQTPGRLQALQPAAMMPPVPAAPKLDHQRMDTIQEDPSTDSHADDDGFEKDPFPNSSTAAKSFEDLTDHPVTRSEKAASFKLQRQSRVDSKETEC
assay-notes: Inhibition of TACE in mouse Raw264.7 cells assessed as inhibition of LPS-induced TNFalpha production treated 1 hr before LPS challenge measured 4 hrs post LPS challenge
Give IC50 for every item shown.

Past entries and their recorded results:
| compound | IC50 |
| --- | --- |
| CC#CCOc1ccc(S(=O)(=O)N[C@H](Cc2c[nH]c3ccc(C)cc23)C(=O)O)cc1 | 7.8 µM |
| CC#CCOc1ccc(S(=O)(=O)NC(Cc2c[nH]c3ccc(OC)cc23)C(=O)O)cc1 (single isomer, unassigned; enantiomer 2) | 57 µM |

Kindly review the next compound as well.
Q: Please report the measured IC50 for CC#CCOc1ccc(S(=O)(=O)N[C@H](Cc2cn(Cc3ccc(OC)cc3)c3ccccc23)C(=O)O)cc1
Ans: > 100 µM

====

Give pIC50 for every item shown.
target-system: UniProt:P50281
assay-notes: Inhibition of MMP14 by […] assay
Answers are plain numbers, as −log10 of the molar value.

Past entries and their recorded results:
| compound | pIC50 |
| --- | --- |
| CC#CCOc1ccc(S(=O)(=O)NC(Cc2c[nH]c3ccc(OC)cc23)C(=O)O)cc1 (single isomer, unassigned; enantiomer 2) | 4.68 |
| CC#CCOc1ccc(S(=O)(=O)NC(Cc2c[nH]c3ccc(OCc4ccccc4)cc23)C(=O)O)cc1 (single isomer, unassigned; enantiomer 2) | 4.71 |

Q: Please report the measured pIC50 for CC#CCOc1ccc(S(=O)(=O)N[C@H](Cc2c[nH]c3ccc(C)cc23)C(=O)O)cc1
Ans: 5.17

====

target-system: Disintegrin and metalloproteinase domain-containing protein 17 (Homo sapiens)
# if measured IC50 < 0.9 µM: Met  # else: Not met

For orientation, consider the following solved cases.
| compound | group-label |
| --- | --- |
| CC#CCOc1ccc(S(=O)(=O)NC(Cc2c[nH]c3ccc(OCc4ccccc4)cc23)C(=O)O)cc1 (stereo in doubt; 11h) | Not met |
| CC#CCOc1ccc(S(=O)(=O)NC(Cc2c(C)n(Cc3ccccc3F)c3ccc(OC)cc23)C(=O)O)cc1 (racemic) | Met |
| CC#CCOc1ccc(S(=O)(=O)NC(Cc2cn(Cc3ccccc3)c3ccc(C(=O)O)cc23)C(=O)O)cc1 (racemic) | Not met |
| CC#CCOc1ccc(S(=O)(=O)NC(Cc2c[nH]c3ccc(F)cc23)C(=O)O)cc1 (racemic) | Not met |
| CC#CCOc1ccc(S(=O)(=O)NC(Cc2c[nH]c3cc(C)ccc23)C(=O)O)cc1 (racemic) | Not met |
| CC#CCOc1ccc(S(=O)(=O)NC(Cc2c(C)n(Cc3cccc(F)c3)c3ccc(OC)cc23)C(=O)O)cc1 (racemic) | Met |

Q: Strictly below 0.9 µM: is that where IC50 of CC#CCOc1ccc(S(=O)(=O)NC(Cc2c[nH]c3ccc(O)cc23)C(=O)O)cc1 (racemic) sits?
Ans: Not met

====

target-system: Disintegrin and metalloproteinase domain-containing protein 17 (Homo sapiens, UniProt P78536)
Sequence (P78536 whole entry, the tested form may be a part): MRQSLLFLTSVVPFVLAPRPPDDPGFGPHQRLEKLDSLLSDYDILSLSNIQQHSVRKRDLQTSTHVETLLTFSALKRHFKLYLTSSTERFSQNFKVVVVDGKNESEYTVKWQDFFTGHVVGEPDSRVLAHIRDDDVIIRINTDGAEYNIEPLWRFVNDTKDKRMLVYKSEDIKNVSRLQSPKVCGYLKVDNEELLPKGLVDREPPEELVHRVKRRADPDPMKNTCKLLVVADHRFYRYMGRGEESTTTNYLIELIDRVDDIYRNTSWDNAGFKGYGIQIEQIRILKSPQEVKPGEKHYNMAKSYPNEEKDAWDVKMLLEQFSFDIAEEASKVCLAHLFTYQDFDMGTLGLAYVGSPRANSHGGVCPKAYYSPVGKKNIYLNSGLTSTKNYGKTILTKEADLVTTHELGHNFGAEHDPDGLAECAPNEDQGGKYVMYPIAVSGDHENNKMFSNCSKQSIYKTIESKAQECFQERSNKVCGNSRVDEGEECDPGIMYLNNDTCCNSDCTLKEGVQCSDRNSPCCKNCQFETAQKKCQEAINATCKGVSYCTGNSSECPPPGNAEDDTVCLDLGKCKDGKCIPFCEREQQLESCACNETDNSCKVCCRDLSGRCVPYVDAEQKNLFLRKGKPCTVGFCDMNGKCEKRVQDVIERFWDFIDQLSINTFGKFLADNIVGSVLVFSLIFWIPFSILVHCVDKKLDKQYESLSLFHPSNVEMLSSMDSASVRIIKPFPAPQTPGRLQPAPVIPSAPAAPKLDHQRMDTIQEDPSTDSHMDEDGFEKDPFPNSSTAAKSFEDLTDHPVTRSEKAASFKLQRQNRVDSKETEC
# if measured IC50 < 300 nM: 1  # else: -1

Q: Strictly below 300 nM: is that where IC50 of CC#CCOc1ccc(S(=O)(=O)NC(Cc2c[nH]c3ccc(OC)cc23)C(=O)O)cc1 (single isomer, unassigned; enantiomer 1) sits?
Ans: -1

Q: Strictly below 300 nM: is that where IC50 of CC#CCOc1ccc(S(=O)(=O)NC(Cc2c(C)n(Cc3ccc(F)cc3)c3ccc(OC)cc23)C(=O)O)cc1 (racemic) sits?
Ans: -1

Q: Strictly below 300 nM: is that where IC50 of CC#CCOc1ccc(S(=O)(=O)NC(Cc2c(C)n(Cc3ccc(Cl)cc3)c3ccc(Cl)cc23)C(=O)O)cc1 (racemic) sits?
Ans: -1

Q: Strictly below 300 nM: is that where IC50 of CC#CCOc1ccc(S(=O)(=O)NC(Cc2c(C)n(Cc3ccc(Cl)cc3)c3ccc(OC)cc23)C(=O)O)cc1 (racemic) sits?
Ans: 1

Q: Strictly below 300 nM: is that where IC50 of CC#CCOc1ccc(S(=O)(=O)NC(Cc2c(C)n(C)c3ccc(OC)cc23)C(=O)O)cc1 (racemic) sits?
Ans: -1

Q: Strictly below 300 nM: is that where IC50 of CC#CCOc1ccc(S(=O)(=O)NC(Cc2cn(Cc3ccc4c(c3)OCO4)c3ccc(OC)cc23)C(=O)O)cc1 (racemic) sits?
Ans: -1

Q: Strictly below 300 nM: is that where IC50 of CC#CCOc1ccc(S(=O)(=O)NC(Cc2c(C)n(Cc3ccc(OC)cc3)c3ccc(Cl)cc23)C(=O)O)cc1 (racemic) sits?
Ans: 1
